Reported GI50 values for a set of compounds
# Test system: PC-3
# experimentNotes: NCI tumour cell line growth inhibition, 48 h
Calls of active or inactive are those of the source. Rule as the data show it: active = GI50 up to about 1.1 µM and inactive = higher. Peptide text beside a SMILES is read from it. * marks the point of attachment. Cbz = O=C(OCc1ccccc1)*

compound	GI50
CC1OC(O[C@H]2CC[C@]3(C)[C@H]4CC=C5[C@@H]6[C@@H](C)[C@H](C)CC[C@]6(C(=O)OC6OC(CO)C(O)C(O)C6O)CC[C@@]5(C(=O)O)[C@]4(C)CC[C@H]3C2(C)C)C(O)C(O)C1O (some centres not stated)	> 100 µM (inactive)
CN1C/C(=C\c2ccccc2[N+](=O)[O-])C(=O)/C(=C/c2ccccc2[N+](=O)[O-])C1	1.23 µM (inactive)
CCOC(=O)C1(C/C=C/CCl)CCCC1=O (configuration not stated)	30.5 µM (inactive)
C1=CC2C=CC(C=C1)P2c1ccccc1 (configuration not stated)	> 100 µM (inactive)
CN1CC(S(=O)(=O)c2ccccc2)CC(S(=O)(=O)c2ccccc2)C1c1ccccc1 (configuration not stated)	12.1 µM (inactive)
O=C(c1ccccc1)c1ccc2[nH]c(-c3c(Cl)c(Cl)c(Cl)c(Cl)c3C(=O)N/N=C/c3cccc(Oc4ccccc4)c3)nc2c1	77.4 µM (inactive)
CC1(C)O[C@@H](CBr)C[C@H](C[C@H]2C[C@@H](O)C[C@@H](CCOCc3ccccc3)O2)O1	20.1 µM (inactive)
O=C(O)CCC(NC(=O)OCc1ccccc1)C(=O)NC(Cc1c[nH]cn1)C(=O)O (stereo not drawn) (Cbz-Glu-His-OH; configuration not given here)	> 100 µM (inactive)
O=[N+]([O-])c1ccccc1CSc1nc(O)c2nc[nH]c2n1	79.8 µM (inactive)
COc1ccc(-c2cc(O)c3nc4ccccc4n3c2)cc1	> 100 µM (inactive)
O=C(O)c1ccccc1/C=N/N=C1NCCCCN1	> 100 µM (inactive)
COC(=O)N1C2C(C[C@@]1(C)C(=O)OC)c1ccccc1N2S(=O)(=O)c1ccccc1 (some centres not stated)	> 100 µM (inactive)
N#Cc1ccccc1NC(=O)/C(=N\NC(=O)c1ccncc1)C(c1cnc2ccc([N+](=O)[O-])cc2n1)[N+](=O)[O-] (configuration not stated)	> 100 µM (inactive)
Cc1cn(Cc2cccc(C3=NCCCN3)c2)c(=O)n(Cc2cccc(C3=NCCCN3)c2)c1=O	> 100 µM (inactive)
NC(Cc1ccc(O)cn1)C(=O)NC(C(=O)O)c1ccccc1 (configuration not stated)	> 100 µM (inactive)
CC(C)=C1C2CC3(C)CCC2(C)CCC13.CC1=CCC2C3(C)CCC2(C(C)C)C1C3 (configuration not stated)	39.3 µM (inactive)
COC(=O)[C@H](Cc1c[nH]c2ccccc12)NP(=O)(OCCC#N)OCC1OC(n2cc(C)c(=O)[nH]c2=O)CC1N=[N+]=[N-] (some centres not stated)	> 100 µM (inactive)

* * *

# Tested on: K562
# experimentNotes: NCI tumour cell line growth inhibition, 48 h
Calls of active or inactive are those of the source. No stated cut-off is given here; in the data, active = GI50 up to about 1.1 µM and inactive = higher.

compound	measuredOn	GI50
Cc1ccc(/N=N/c2ccc(O)c(CN(C)C)c2)cc1	K562	20 µM (inactive)
O=CCCn1[nH]c(=O)ccc1=O	K562	> 100 µM (inactive)
COC(=O)N1C2C(C[C@@]1(C)C(=O)OC)c1ccccc1N2S(=O)(=O)c1ccccc1 (stereo not given in full)	K562	> 100 µM (inactive)
CCOC(=O)NC(=O)c1cn(CCN2CCN(C(=O)CCCCCCCCCCNc3ncnc4c3ncn4C3OC(CO)C(O)C3O)CC2)c(=O)[nH]c1=O (stereo not given)	K562	> 100 µM (inactive)
O=[N+]([O-])c1cc(-[n+]2cc([O-])on2)ccc1F	K562	34.4 µM (inactive)
COC1CCN(N(C)C)O1 (stereo not given)	K562	> 100 µM (inactive)
O=c1c2ccccc2n2c(S)nnc2n1-c1ccccc1	K562	> 100 µM (inactive)
Cc1ccc(OP(=O)(Oc2ccc(C)cc2)N2C=Cc3ccccc3C2C#N)cc1 (stereo not given)	K562	> 100 µM (inactive)
NS(=O)(=O)c1ccc(/N=N/c2ccc(O)c(O)c2)cc1	K562	28.7 µM (inactive)
CN(C)c1ccc(/C=C2\N=C(c3ccccc3)N(c3ccc4c(c3)Sc3cc(N5C(=O)/C(=C/c6ccc(N(C)C)cc6)N=C5c5ccccc5)ccc3N4)C2=O)cc1	K562	29.6 µM (inactive)
COC(=O)c1ccccc1NC(=S)NN(C)C	K562	> 100 µM (inactive)
Cc1ccc(Nc2nc(=O)[nH]c(=O)[nH]2)cc1N=[N+]=[N-]	K562	> 100 µM (inactive)
COc1cc(CNc2nc3cc(C(F)(F)F)ccc3nc2C(=O)O)cc(OC)c1OC	K562	28 µM (inactive)
Cc1cc2c(cc1Cl)SC(NS(=O)(=O)c1ccc(Cl)cc1)=NS2(=O)=O	K562	41.9 µM (inactive)
COC(=O)/C(=N\NC(N)=S)C(C(=O)OC)C(=O)C(=O)Nc1ccc(C)cc1 (stereo not given)	K562	> 100 µM (inactive)
CN1CC(S(=O)(=O)c2ccccc2)CC(S(=O)(=O)c2ccccc2)C1c1ccccc1 (stereo not given)	K562	15 µM (inactive)
NCCNCCCNC(=O)c1cc(-c2ccccc2)nc2ccccc12	K562	23.1 µM (inactive)
CC1(C)Oc2ccc3c(=O)cc(-c4ccccc4)oc3c2C1C(=O)O (stereo not given)	K562	> 100 µM (inactive)
c1ccc([C@@H]2N[C@@]3(CO[Si](c4ccccc4)(c4ccccc4)c4ccccc4)CC[C@H]4CN[C@@H]2[C@H]43)cc1	K562	3.33 µM (inactive)
CC(C)=CCC[C@@H](C)/C=C/C=C(\C)C(=O)CC[C@@H]1CC[N@+]2(C)CCCC[C@H]12	K562	49.9 µM (inactive)
